All figures here come from PubChem BioAssay (NCI).

- System: U251 CNS
Please answer using one outcome listed in active, inactive

Task item: Entry Cc1cc(N(CCCNc2ccnc3cc(Cl)ccc23)Cc2ccc3c(c2)OCO3)nc(N2CCOCC2)n1 : call = ?
Reply: active

Task item: Hi, do you know how Cc1ccc2c(C3C(C#N)=C(N)Oc4cc5ccccc5cc43)cc(=O)oc2c1 (stereo not given) came out in this test?
Reply: inactive

Task item: State the result this test recorded for NCCc1cc(O)c(O)cc1O .
Reply: inactive

Task item: What classification did O=C(Nc1ccc(Cl)c(C(F)(F)F)c1)c1ccc(NC2=C(Cl)C(=O)N(Cc3ccccc3)C2=O)cc1 end up with in this test?
Reply: inactive

Task item: Answer briefly: the call reported for Nc1ccn(C2OC(CO)C(O)C2O)c(=O)n1 (stereo not given) in this assay.
Reply: inactive

Task item: Identify the outcome logged in this assay for the compound shown: CCOC(=O)c1c(-c2ccc(OC)cc2)c(C#N)c2c(C#N)c(N)nn2c1N
Reply: inactive

Task item: Field: outcome | Entry: Cc1ccc(Nc2oc(-c3ccccc3)nc2[P+](c2ccccc2)(c2ccccc2)c2ccccc2)cc1
Reply: inactive

Task item: How was C=CCc1ccc(O)c(-c2ccc(O)c(CC=C)c2)c1 classified in this test?
Reply: inactive

Task item: State the result this test recorded for O=C1c2cc3c(cc2-c2c1c1cc(Cl)c(Cl)cc1c(=O)n2C[C@H](O)CO)OCO3 .
Reply: active

Task item: Please share the test call associated with COc1ccc(-c2cc(/C=C/C(=O)c3ccc(OC)c(OC)c3)[nH]n2)cc1 .
Reply: inactive

###

- Test system: A498 renal
- assay-procedure: NCI tumour cell line growth inhibition, 48 h
endpoint: TGI (µM)
Give the value, in units of µM, as a plain number.

Lab note: measured TGI of CC(=O)NNc1nc(-c2ccc([N+](=O)[O-])cc2)c(C#N)c(=O)n1C was 75.5

Kindly note the recorded TGI for O=C(O)CCSC(CC1(c2ccc(Cl)cc2)NC(=O)CCS1)c1ccccc1 (stereo not drawn) , which is 42.9

Entry COC(=O)c1ccc2c(c1)/C(=C\c1cc(Br)c(O)c(Br)c1)C(=O)N2 , TGI reported as 11

###

- Test system: SW-620 colon
- assay-procedure: NCI tumour cell line growth inhibition, 48 h
endpoint: TGI

Note to self: TGI of O=S(=O)(c1ccccc1)N1N=C2c3ccccc3CCC[C@H]2C1c1ccccc1 (stereo partly specified) with SW-620 colon was > 100 µM

Observed TGI on SW-620 colon, entry CSc1nc(NC2OC(COC(C)=O)C(OC(C)=O)C(OC(C)=O)C2OC(C)=O)c(N=CC=Nc2c(NC3OC(COC(C)=O)C(OC(C)=O)C(OC(C)=O)C3OC(C)=O)nc(SC)n(C)c2=O)c(=O)n1C (stereo unspecified) , equals > 100 µM

Query CC1OC(OC2C(OC(=O)[C@]34CCC(C)(C)C[C@H]3C3=CC[C@@H]5[C@@]6(C)CC[C@H](OC7OC(CO)C(O)C(O)C7OC7OC(CO)C(O)C(O)C7O)C(C)(C)[C@@H]6CC[C@@]5(C)[C@]3(C)CC4)OCC(O)C2O)C(O)C(OC2OCC(O)C(O)C2O)C1OC1OCC(O)C(OC2OCC(O)C(O)C2O)C1O (stereo partly specified) on SW-620 colon; TGI returned: > 55.6 µM

Record Cn1c(=O)c(Oc2ccc(F)cc2)cc2cnc(NC3CCOCC3)nc21 / SW-620 colon, TGI recorded as > 25 µM

Reported SW-620 colon TGI for item N=C1C(=N)c2ccccc2-c2ccccc21.N=C1C(=N)c2ccccc2-c2ccccc21.N=C1C(=N)c2ccccc2-c2ccccc21.[Cl-].[Ru+2] was 3.74 µM

Entry O=C1c2cc3c(cc2-c2c1c1cc(Cl)c(Cl)cc1c(=O)n2C[C@H](O)CO)OCO3 ; assay system SW-620 colon; TGI recorded at 2.08 µM

###

- Tested on: A498 renal
- assay-procedure: NCI tumour cell line growth inhibition, 48 h
Think of 40 µM as a floor: if TGI stands on it or above, it is Yes; beneath it, No.

Task item: Item CC(=O)NC1=N/C(=C\c2ccc(Cl)cc2)C(=O)N1/C=C1\C(=O)Oc2ccccc2C1=O with TGI of 40 µM or above?
Reply: Yes

Task item: # check: TGI of COc1ccc(-c2nsc3c2NC(=O)CC3c2cccc(OC)c2)cc1 (stereo not given) is greater than or equal to 40 µM
Reply: No

Task item: Does TGI meet or surpass 40 µM for CCOC(=O)c1sc2c(c1OC(=O)c1ccc(OC)cc1)c(=O)n(-c1ccccc1)c(=S)n2-c1ccccc1 ?
Reply: Yes

Task item: Reported TGI at or above 40 µM? CC1(C)OC[C@@H]([C@H](O)C2C=CC(=O)S2)O1 (stereo not given in full)
Reply: Yes

Task item: Reported TGI at or above 40 µM? COC12C(COC(N)=O)C3=C(C(=O)C(C)=C(N)C3=O)N1CC1C2N1C (stereo not given)
Reply: No

Task item: Decide: is the reported value of TGI for COC(=O)c1ccc(-c2c(C#N)[n+](=O)c3cc(Cl)c(Cl)cc3n2[O-])cc1 equal to or greater than 40 µM?
Reply: Yes

Task item: In plain terms: is recorded TGI at least 40 µM for S=c1[nH]c2c(Cl)c(Cl)c(Cl)c(Cl)c2[nH]1 ?
Reply: Yes

Task item: Threshold query (TGI >= 40 µM) on Cc1ncc([N+](=O)[O-])n1CCNCCCCn1ccnc1[N+](=O)[O-]
Reply: Yes

Task item: Does the reported TGI for Cn1c(Nc2ccc(C(F)(F)F)cc2)nc2cc(Oc3ccnc(-c4ncc(C(F)(F)F)[nH]4)c3)ccc21 fall at or above the 40 µM mark?
Reply: No

Task item: Given the entry CCOc1nnnc2nc[nH]c12 , answer whether its TGI meets or surpasses 40 µM.
Reply: Yes

###

Consider the following compounds; for each one, report its TGI.
- System: EKVX NSCLC
- assay-procedure: NCI tumour cell line growth inhibition, 48 h

What the record says about CN(C)c1ncnc2c1ncn2CCn1cnc2c(N(C)C)ncnc21 : TGI is > 100 µM

Record O=C1CCC/C=C\C[C@H]2C=CC(=O)/C2=C/C[C@H](C/C=C\CC(F)(F)F)O1 . Reported TGI: 3.42 µM

TGI for Cn1cnnc1Sc1c([N+](=O)[O-])ncn1C is > 100 µM

TGI in this record for CC(C)=CCc1cc(O)cc2c1OC(C=C(C)C)C1=C2C(=O)C2=C(C1=O)S(=O)(=O)CCN2 (stereo not given) : 9.16 µM

The compound identified as COc1ccc(/C=C2\c3cc(OC)c(OC)cc3CCN2C(=O)c2ccccc2)cc1OC registered its TGI at > 100 µM

Lab note: COc1ccc(/C=C(\C(C)=O)C(=O)Nc2ccccc2)cc1 gave TGI of > 100 µM

Measured TGI of CCOC(=O)C(CCN1CCC2(CC1)C(=O)N(C)CN2c1ccccc1)C(=O)OCC : > 100 µM

Lab note: COC(=O)C(C(=O)Cc1ccccc1[N+](=O)[O-])C(=O)OC gave TGI of > 100 µM

Entry under test: O=C(CC(C(=O)c1ccsc1)c1ccccc1)c1ccccc1 (stereo not given) . Its TGI was > 100 µM

Value of measured TGI for the entry CN(C)CCNC(=O)c1cccc2c(Nc3ccc(S(=O)(=O)N=C(N)N)cc3)c3ccccc3nc12 : 55.3 µM

TGI for Cn1c(Nc2ccc(C(F)(F)F)cc2)nc2cc(Oc3ccnc(-c4ncc(C(F)(F)F)[nH]4)c3)ccc21 is 19.1 µM

Looking up O=[N+]([O-])c1cccc2ccc(N/N=C/c3ccccc3O)nc12 , I found its TGI recorded as > 100 µM

Field TGI (entry C=CCN(C(=O)CNC(=O)C(F)(F)F)c1cc(OCc2ccccc2)c2c(c1)c(C)cn2S(=O)(=O)c1ccccc1 ) reads > 100 µM

The recorded TGI for COc1ccc(-c2nnc(N3CCN(C(=O)CN4CCN(c5ccccc5)CC4)CC3)nc2-c2ccc(OC)cc2)cc1 is > 100 µM

According to the records, this compound NCC(=O)Nc1ccc(S(=O)(=O)O)c2cc(S(=O)(=O)O)cc(S(=O)(=O)O)c12 displays TGI of > 100 µM

Lab note: O=C(NNc1ccccc1)C(=O)NNc1ccccc1 gave TGI of > 100 µM

The compound identified as O=S(=O)(Nc1ccc(Cl)cc1Cl)c1ccc(-c2cnc(C3CC3)o2)cc1 registered its TGI at 88.6 µM

Measured TGI, Cc1nn(C(=O)CC(=O)Nc2ccc(Cl)cc2)c(C)c1N=Nc1ccccc1C(=O)O : > 100 µM

Measured TGI, CCOC(=O)/C=C/c1ccc(C#Cc2ccccc2)cc1 : 43.1 µM

CCOC(=O)c1ccc(N=Nc2cc(C(=O)OCC)ccc2O)cc1 has a reported TGI of 41.8 µM
